Assay: yeast display, Sf9 membrane polyspecificity reagent, FACS + sequencing; frameworks hold sequencing errors
Readout Kind: polyreactivity (PSR sort gate)

[[record]]
input_sequence = "QVQLVESGGGLVQAGGSLRLSCAASGRIFYYYAMGWYRQAPGKERELVATISGIGGSTYYADSVKGRFTISRDNAKNTVYLQMNSLKPEDTAVYFCTADYPTSYPLFKSGFDYWGQGTQVTVSS"
observed = "low polyreactivity"

[[record]]
input_sequence = "QVQLHESGGGLLQAGGTLRLSCAASGTISYAGPMCWYRQSPGKEREFVAGIGVGSNTNYADSVKGRYTIIRDNAKNTVYLQMNSLKPEDTAVYYCAVGGFAPLGRPYWGQGTQVTVSS"
observed = "low polyreactivity"


====

Experiment: yeast display, Sf9 membrane polyspecificity reagent, FACS + sequencing; frameworks hold sequencing errors
Readout Kind: polyreactivity (PSR sort gate)

[[record]]
input_sequence = "QVQLVESGGGLVQAGGSLRLSCAASGIIFSYYTMGWYRPAPGKERELVAAISARGGRTYYADSVKGRFTISRDNAKNTVYLQMNSLKPEDTAVYYCAASWSTEYYWGQGTQVTVSS"
readout_kind = "polyreactivity (PSR sort gate)"
observed = "high polyreactivity"

[[record]]
input_sequence = "QVQLVESGGGLVQAGGSLRLSCAASGRTIWWYAMGWYRQAPGKERELVAAITWIGGSTYYADSVKGRFTISRDNAKNTVYLQMNSLKPEDTAVYYCATDKDDVSDLGKDYAYFEYDYWGQGTQVTVSS"
readout_kind = "polyreactivity (PSR sort gate)"
observed = "low polyreactivity"

[[record]]
input_sequence = "QVQLVESGGGLFQAGGSLRITCSPSGFIFHGYAMGWYRQAPGKERELVAAISTGTNTNYADSLKGRFTISRDNAKNTVYIQMNRLKPEDTAVYYCNARSADTWYTSRRFYYWGQGTQVTVSS"
readout_kind = "polyreactivity (PSR sort gate)"
observed = "low polyreactivity"

[[record]]
input_sequence = "QVQLVESGGGLVQAGVSLRLSCAASGRIFPYNAMGWDRQAPGKERELVAAIDWSGGRTYYADSVKGRFTISRDNAKNTDYLQMNSLKPEDTALYYCAAAYGGRLRYTAGYYWGQGTQVTVSS"
readout_kind = "polyreactivity (PSR sort gate)"
observed = "high polyreactivity"

[[record]]
input_sequence = "QVQLVESGGGLVQARGSLRLICAASGRTINGYVMGWYRPAPGKEREFVAVINWSGGNTYYADSVKGRFTISRDNAKNTLYLQMNSLKPEDTAVYDCAARRVRSYAYDYWGQGTEVTVSS"
readout_kind = "polyreactivity (PSR sort gate)"
observed = "high polyreactivity"

[[record]]
input_sequence = "QVQLVESGGGLVQAGGSLRLSCAASGSIFYIYAMGWSRQAPGKERELVASITFSGDITYYADSVKGRFTISRDNAKNTVYLQMNSLKPEDTAVYYCNTRTPYWFKSDYWGQGTQVTVSS"
readout_kind = "polyreactivity (PSR sort gate)"
observed = "low polyreactivity"

[[record]]
input_sequence = "QVQLVESGGGLVQAGGTLRLSCAASGGTFATYAMGWCRQGPGKERELVAAITQSGGTTYYADSVKRRFTISRDNANNTVYLQMNSLKPEDTAVYYCNAEASQAVYYAYEYWGQGTQVTVSS"
readout_kind = "polyreactivity (PSR sort gate)"
observed = "low polyreactivity"

[[record]]
input_sequence = "QVQLVESGGGLVQAGGSLRLSCAAYGSIFRKYVMGWYRQAHGKERELVAVISSGTGTYYADSVKGRFTISRDNAKNTVYLQMNSLNPEDTAVYYCAARVGRYGYSQYYYWGHGTQVTVSS"
readout_kind = "polyreactivity (PSR sort gate)"
observed = "high polyreactivity"

[[record]]
input_sequence = "QVQLVESGGGLVQAGGSLRLSCAASGRTFDGYAMGWYSQAPGKERELVAALSSRSGRTYYADSVKGRFTISRDNAKNTVYLQMNSLKPEDTAGYYCAAVNKPRSEDYGYWGQGTQVTVSS"
readout_kind = "polyreactivity (PSR sort gate)"
observed = "high polyreactivity"

[[record]]
input_sequence = "QVQLVESGGGLVQAGGSLRLSCAASGSTFSSNTMGWYRQAPGKERELVAAITTGGDTYYADSVKGRFTISRDNAKNTVYLQMNSLKPEDTAVYYCAATPTYWYLWSPYDYWGQGTQVTVSS"
readout_kind = "polyreactivity (PSR sort gate)"
observed = "low polyreactivity"

[[record]]
input_sequence = "QVQLVESGGGLVQAGGSLRLSCAASGFTFYSYVMGWYRQAPGKERELVAAISWSGGSTYYADSVKGRFTISRDNAKNTVYLQMNSLKPEDTAVYYCAARRYASRTGYLYDYWGQGTQVTVSS"
readout_kind = "polyreactivity (PSR sort gate)"
observed = "high polyreactivity"

